These entries and their values trace back to paper PMC11308618.

Target: Cavα2δ-1
Construct: gene CACNA2D1; chemically synthesized peptide surrounding the K615 locus ([…]; peptide P3)
Assay: SPR (Biacore) on immobilized peptide
Format: binding, Oryctolagus cuniculus
Experimental Readout: pKd
Conceptually, pKd converts a concentration in mol/L into minus its log10.

Tell me pKd reported for `CCC1=C[C@@H]2[C@H](C1)C[C@]2(CN)Cc1nnn[nH]1`
3.56
